Measured values drawn from ChEMBL document CHEMBL2086347 for this set.

PROCEDURE DETAILS: Cytotoxicity against african green monkey Vero cells
Assay type: cell-based
CONDITION DETAILS: chlorocebus sabaeus
READOUT KIND: CC50
A bare number is not enough; add the unit after it.

Below, 5 compounds whose answers are already recorded.
C[n+]1c2ccccc2c(NC2CCNCC2)c2[nH]c3ccccc3c21.[Cl-] | 62000 nM
C[n+]1c2ccccc2c(Nc2cccnc2)c2[nH]c3ccccc3c21.[Cl-] | 2600 nM
C[n+]1c2ccccc2c(Nc2ccc(N3CCCCC3)cc2)c2[nH]c3ccccc3c21.[Cl-] | 4800 nM
CCN(CC)CCCNc1c2ccccc2[n+](C)c2c1[nH]c1ccccc12.[Cl-] | 2500 nM
C[n+]1c2cc(Cl)ccc2c(NC2CCNCC2)c2[nH]c3cc(Cl)ccc3c21.[Cl-] | 800 nM

Annotate the compound CC(CN(C)C)Nc1c2ccccc2[n+](C)c2c1[nH]c1ccccc12.[Cl-] (stereo not drawn) with its measured CC50.
3000 nM

Annotate the compound C[n+]1c2ccccc2c(NCCCN2CCCCC2)c2[nH]c3ccccc3c21.[Cl-] with its measured CC50.
2000 nM

Annotate the compound CC(C)CN1CCC(Nc2c3ccccc3[n+](C)c3c2[nH]c2ccccc23)CC1.[Cl-] with its measured CC50.
5000 nM
